A collection of compounds and their measured growth
System: NCI/ADR-RES ovarian
measurementNotes: NCI-60 one-dose screen, 48 h (100 = growth as untreated, 0 = no growth, -100 = all killed)
conditions: 10 µM unless noted
Method: Growth inhibition of the NCI/ADR-RES human […] tumor cell line is measured as a screen for anti-cancer activity. Cells are grown in 96 well plates and exposed to the test compound for 48 hours. Compounds are tested at a single concentration, which is 10^-5 M for most compounds. The reported endpoint is percent growth (GI% or GIPRCNT), where numbers from 0 - 100% represent growth inhibition, and numbers from -100% - 0 represent cell death. For example, a value of 40 represents 60% growth inhibition. […]
About 83,000 compounds went through this panel and 20% of them were active in at least one assay; those are over-represented in the sample as a whole.
Please state the figure in %; there is no need to write the unit.

# compound, testReadout, reportedMeasurement
rows = [
    ("CCNC(=O)Oc1ccc(/C(=C(/CC)Cc2ccccc2)c2ccc(OCCN3CCOCC3)cc2)cc1", "growth", 49.4),
    ("O=S(=O)(CCN1CCOCC1)Nc1cc(-c2ccc3ncnc(Nc4ccc(F)c(Cl)c4)c3c2)cnc1Cl", "growth", 48.6),
    ("COc1ccc(/C=C2\\CS(=O)(=O)C/C(=C\\c3ccc(OC)cc3)C2=O)cc1", "growth", 10.5),
]

Please report the recorded growth for O=C1C(Cl)=C(Nc2ccccc2)C(=O)C(Cl)=C1Nc1ccccc1 .
102

Another compound to look at: O=[N+]([O-])c1cccc2cc(S(=O)(=O)O)ccc12
101

What would you report for Cc1ccc(-c2nc3c(N=Nc4ccc(S(N)(=O)=O)cc4)c(N)nn3c(N)c2C#N)cc1 ?
99.9

* * *

Parameter: growth. Scope: all listed entries.
System: SNB-19 CNS
measurementNotes: NCI-60 one-dose screen, 48 h (100 = growth as untreated, 0 = no growth, -100 = all killed)
conditions: 10 µM unless noted
Procedure: Growth inhibition of the SNB-19 human tumor cell line is measured as a screen for anti-cancer activity. Cells are grown in 96 well plates and exposed to the test compound for 48 hours. Compounds are tested at a single concentration, which is 10^-5 M for most compounds. The reported endpoint is percent growth (GI% or GIPRCNT), where numbers from 0 - 100% represent growth inhibition, and numbers from -100% - 0 represent cell death. For example, a value of 40 represents 60% growth inhibition. […]
Compounds without any hit were thinned out: in the full panel of roughly 83,000, 20% have a hit.
// units = %; emit number, no label

# annotated cases, reported growth shown
# sampleSmiles, growth [%]
data = [
    ("O=C1c2ccccc2OC=C(c2ccccc2)N1CCCCN1CCCCC1", 50.7),
    ("CCCCCn1ncc(-c2c(O)c(O)cc3c(O)c(-c4c(C)cc5c(-c6cnn(CCCCC)n6)c(O)c(O)cc5c4O)c(C)cc23)n1", 22),
    ("Nc1ncnc2c1c(-c1ccc(Oc3ccccc3)cc1)nn2C[C@H]1SSC[C@@H]1O", 66.5),
    ("CCCN1C(=O)CSC1=Nc1ccc2cc3ccc(N=C4SCC(=O)N4CCC)cc3nc2c1", 55.4),
    ("O=C(Nc1ccc(-n2cc(-c3ccncc3)c(-c3ccc(O)c(Cl)c3)n2)cc1)c1ccc(Cl)c(C(F)(F)F)c1", 40.2),
]

--- query ---
Would you kindly share the measured growth for COc1ccc(Cl)cc1NC(=O)c1cc2c([nH]1)-c1nc(NC(=O)C(C)(C)C)sc1CC2 ?
44

* * *

growth listing for selected compounds.
Test system: OVCAR-8 ovarian
measurementNotes: NCI-60 one-dose screen, 48 h (100 = growth as untreated, 0 = no growth, -100 = all killed)
conditions: 10 µM unless noted
This is part of a sample that, as a whole, favours compounds with a hit. Of some 83,000 tested, about 20% had one in any assay.
Respond numerically; units are % and should not be typed.

// known answers, use as guide
# compound, growth / %
measured = [
    ("COc1ccc(Cl)cc1NC(=O)c1cc2c([nH]1)-c1nc(NC(=O)C(C)(C)C)sc1CC2", 26.8),
    ("CC(=O)c1ccc2c(c1)C1C=CCC1[C@H](c1cc3c(cc1Br)OCO3)N2 (stereo not given in full)", 16.8),
    ("CCOC(=O)C(C)(CSSCC(C)(NC(=O)c1ccc2ccccc2c1)C(=O)OCC)NC(=O)c1ccc2ccccc2c1 (stereo not given)", 90.6),
    ("Cc1ccc(-c2cn3cc([N+](=O)[O-])ccc3n2)cc1", 76.7),
    ("CCc1cccc(-c2ccccc2)c1", 101),
    ("Cc1ccc2oc(=O)cc(C3C(C#N)=C(N)Oc4c3ccc3ccccc43)c2c1 (stereo not given)", 85.8),
    ("O=C1CCC(c2c(O)cc(O)c3c(=O)c(O)c(-c4ccc(O)c(O)c4)oc23)N1 (stereo not given)", 105),
    ("Nc1n[nH]c2cccc(C#Cc3cccc(NC(=O)c4cccc(C(F)(F)F)c4)c3)c12", 47.2),
    ("C#C[C@H](O)/C=C/CCCCCCC#C[C@H](O)CC[C@@H](O)C#CCCCCCC/C=C/[C@@H](O)C#C", 89.1),
]

Consider now this further compound.
Observed growth on OVCAR-8 ovarian for O=C1c2ccccc2OC=C(c2ccccc2)N1CCCCNc1ccc(F)cc1 , please.
80.6

* * *

A collection of molecules and their measured growth
System: SK-MEL-2 melanoma
measurementNotes: NCI-60 one-dose screen, 48 h (100 = growth as untreated, 0 = no growth, -100 = all killed)
conditions: 10 µM unless noted
About 83,000 compounds went through this panel and 20% of them were active in at least one assay; those are over-represented in the sample as a whole. Activity calls are given as the source filed them. Rule for the calls: active = growth percent below 10; inactive = the rest.

In the examples that follow, each entry is paired with its recorded growth.
# molecule, growth
data = [
    ("COc1ccc(/C=C2\\CS(=O)(=O)C/C(=C\\c3ccc(OC)cc3)C2=O)cc1", "-7.45% (active)"),
    ("Clc1ccc2c(c1)nnn1c3ncccc3c(Br)c21", "93% (inactive)"),
    ("COc1ccc(OC)c(NCC(=O)n2nc(/C=C\\c3ccc(O)c(OC)c3)cc2/C=C\\c2ccc(O)c(OC)c2)c1", "0.648% (active)"),
    ("O=C(c1ccccc1)[C@H]1[C@@H]2CCCN2[C@]2(C(=O)Nc3ccc(F)cc32)[C@]12C(=O)Nc1ccccc12", "83.1% (inactive)"),
    ("Cc1ccn2cc(Cc3cc(=O)oc4c3ccc3ccccc34)c(=O)nc2c1", "80.6% (inactive)"),
]

Please give the measured growth for this molecule: CC(C)CCC[C@@H](C)[C@H]1CC[C@H]2[C@@H]3CC=C4N(c5ccccc5)C(=O)CC[C@]4(C)[C@H]3CC[C@]12C
101% (inactive)

Same thing, different molecule: CC(=O)N1N=C(CCC(=O)c2nc3ccc([N+](=O)[O-])cc3[nH]2)OC1c1ccc(O)cc1 (stereo unspecified)
57.4% (inactive)

* * *

System: K-562 leukemia
measurementNotes: NCI-60 one-dose screen, 48 h
conditions: 10 µM unless noted
Compounds without any hit were thinned out: in the full panel of roughly 83,000, 20% have a hit. Calls of active or inactive are those of the source. How the source made its calls: active means growth percent below 10; inactive means the rest.
Outcome field: choose from Yes = active, No = inactive

Take a look at these entries with their results.
# sampleSmiles, systemName, classAssignment
measured = [
    ("O=C(O)c1ccc(-c2nn(-c3ccc(C(=O)O)cc3)cc2/C=N/Nc2c(F)c(F)cc(F)c2F)cc1", "K-562 leukemia", "No"),
    ("O=C(Nc1cccc([N+](=O)[O-])c1)Nc1cccc([N+](=O)[O-])c1", "K-562 leukemia", "No"),
    ("S=c1n(CNc2ccc(Cl)nn2)nc(-c2cc(Cl)cc(Cl)c2Cl)n1/N=C/c1ccc(Cl)cc1", "K-562 leukemia", "No"),
]

Query: recorded result category for O=[N+]([O-])c1cccc(C(c2ccccc2)c2ccccc2)c1 in this test
No

Another molecule to look at: CCCCCCCC(=O)SCC/C=C/[C@@H]1CC(=O)NCc2nc(cs2)C2=N[C@@](C)(CS2)C(=O)N[C@@H](C(C)C)C(=O)N1
Yes

// same read-out, input: O=C(NCCNc1nccc(-c2c(-c3cccc(O)c3)nc3sccn23)n1)c1ccccc1
No

Similarly, COc1cc2c(/C=C3/C(=O)Nc4ccc(O)cc43)c(Cl)n(Cc3cc(OC)c(OC)c(OC)c3)c2cc1C ?
Yes

* * *

In this section, each of the compounds is paired with its reported growth.
System: HCC-2998 colon
measurementNotes: NCI-60 one-dose screen, 48 h (100 = growth as untreated, 0 = no growth, -100 = all killed)
conditions: 10 µM unless noted
This is part of a sample that, as a whole, favours compounds with a hit. Of some 83,000 tested, about 20% had one in any assay.
Numbers only; they are read as %.

Some entries whose results are on file:
# sampleSmiles, testReadout, reportedMeasurement
records = [
    ("CN(C)CCCOc1c(Br)cc(/C=C/C(=O)N(C)CCc2cc(Br)c(OCCCN(C)C)c(Br)c2)cc1Br", "growth", 73),
    ("O=C1/C(=C/c2cccc3cnccc23)Cc2cc(F)ccc21", "growth", 106),
    ("CCCCCCCCCCCC(=O)OCCNC(=O)C[n+]1ccccc1", "growth", 111),
]

# next compound below
Look up growth for this compound: Nc1ncnc2c1c(-c1ccc(Oc3ccccc3)cc1)nn2C[C@H]1SSC[C@H]1O
11.2

Hello, the source for this data is PubChem BioAssay (NCI), in case you need it.
